Target: DRB1*0701 (Homo sapiens, UniProt P01903+P01911, A100R/A102G/A103Q/D57E/D86V/E43K/F76Y/K127E/L162R/M171V/P40G/Q125H/Q99D/R33Q/R42Y/R54Q/S133A/S66F/T210M/V115G/Y107V/Y59L/Y89S)
Assay: MHC II competition binding assay
Conditions: DRB1*0701; read-out: IC50
Where no end group is shown, it is not given here.
Each entry below carries its reported IC50.
Report the figure in µM without appending any unit label.

Some sequences with recorded IC50:
[[record]]
sequence_data = "DYVEAGQQIGWSGSTGY [Peptide 95-99]"
endpoint_unit = "µM"
numeric_readout = 104

[[record]]
sequence_data = "HLHFQRMVGSFSNPTAQ [Peptide N121G]"
endpoint_unit = "µM"
numeric_readout = 17.4


Challenge: # IC50 lookup, item HLHFQRMVNSFSNPTAQ [Design C5WT]
Response given: 15.2

====

Target: DRB1*0801 (Homo sapiens, UniProt P01903+P01911, A100R/A103L/A169T/D86S/F76Y/H45Y/I96F/K41T/L162R/M171V/P40S/Q125H/Q178H/Q39Y/Q99D/R218S/R42G/S66Y/V115G/W38E)
Test: MHC II competition binding assay
Conditions: synthetic peptide competing with biotinylated control peptide; read-out: IC50 0801
Where no end group is shown, it is not given here.
quantity kind: IC50

Challenge: # IC50 lookup, item GVDFFMNEGTPVKAISSGKIV [Design 141E]
Response given: > 250 µM

Challenge: Okay, and SAQWLNNYKKGYGYG [Design C1WT] ?
Response given: 13.7 µM

Challenge: Okay, and GVDFFMNIGTPVKAISSGKIV [Design C2WT] ?
Response given: > 250 µM

Challenge: Okay, and SAQWLNHYKKGYGYG [Design N13H] ?
Response given: > 250 µM

====

Molecular target: DRB1*0801 (Homo sapiens, UniProt P01903+P01911, A100R/A103L/A169T/D86S/F76Y/H45Y/I96F/K41T/L162R/M171V/P40S/Q125H/Q178H/Q39Y/Q99D/R218S/R42G/S66Y/V115G/W38E)
Assay: MHC II competition binding assay
Settings: DRB1*0801; read-out: IC50
pIC50: −log10 of the molar value. Where no end group is shown, it is not given here.
quantity kind: pIC50

[[record]]
sequence_data = "DHVKAGQQIGWSGSTGY [Peptide 93_99]"
result = "< 3.60"

[[record]]
sequence_data = "DYVEAGQQIGWSGSTGY [Peptide 95-99]"
result = "< 3.60"

[[record]]
sequence_data = "HLHFQRMVGSFSNPTAQ [Peptide N121G]"
result = "< 3.60"


Challenge: # pIC50 lookup, item HLHFQRMVNSFGNPTAQ [Peptide S124G]
Response given: < 3.60

Challenge: Okay, and HLHFQRMVNSFSNPTAQ [Design C5WT] ?
Response given: 4.66

Challenge: Okay, and DHVEAGQQIGWSGSTGY [Peptide 939599] ?
Response given: < 3.60

====

Each entry below carries its reported IC50.
Biological target: DRB1*1501 (Homo sapiens, UniProt P01903+P01911)
Construct: purchased Benaroya Research Institute (Seattle, Wash.)
Experiment: MHC II competition binding assay
Where no end group is shown, it is not given here.

Some sequences with recorded IC50:
[[record]]
sequence_data = "HLHFQRMVNDFSNPTAQ [Peptide S122D]"
result = "< 10 nM"

[[record]]
sequence_data = "HLHFQRMVGDFSNPTAQ [Peptide 21_22]"
result = "< 10 nM"

[[record]]
sequence_data = "DYVEAGQIIGWSGSTGY [Peptide K95E]"
result = "< 10 nM"

[[record]]
sequence_data = "HLHFQRMVGSFSNPTAQ [Peptide N121G]"
result = "< 10 nM"

[[record]]
sequence_data = "HLHFQTMVNDFGNPTAQ [Peptide 182224]"
result = "420 nM"


Challenge: # IC50 lookup, item GVDFFMNEGTPVHAISSGKIV [Design 41_46]
Response given: < 10 nM

====

Biological target: DRB1*1301 (Homo sapiens, UniProt P01903+P01911, A100E/A169T/K41T/L162R/M171V/P40S/Q125H/Q178H/Q39Y/Q99D/R42S/S66N/T262R/W38E/Y61H)
Assay: MHC II competition binding assay
Settings: synthetic peptide competing with biotinylated control peptide; read-out: IC50 1301
Where no end group is shown, it is not given here.
quantity kind: IC50

[[record]]
sequence_data = "GVDFFMNIGTPVKAISSGKIV [Design C2WT]"
quantity_kind = "IC50"
result = "104 µM"


Please look at the following sequence next.
Challenge: # IC50 lookup, item SAQWLGNYKKGYGYG [Design N12G]
Response given: > 250 µM

====

Target: DRB1*0701 (Homo sapiens, UniProt P01903+P01911, A100R/A102G/A103Q/D57E/D86V/E43K/F76Y/K127E/L162R/M171V/P40G/Q125H/Q99D/R33Q/R42Y/R54Q/S133A/S66F/T210M/V115G/Y107V/Y59L/Y89S)
Assay: MHC II competition binding assay
pIC50: −log10 of the molar value. Where no end group is shown, it is not given here.
quantity kind: pIC50

Some sequences with recorded pIC50:
[[record]]
sequence_data = "HLHFQRMVNDFSNPTAQ [Peptide S122D]"
result = "< 3.60"

[[record]]
sequence_data = "HLHFQTMVNDFGNPTAQ [Peptide 182224]"
result = "< 3.60"

[[record]]
sequence_data = "HLHFQRMVGDFGNPTAQ [Peptide 212224]"
result = "< 3.60"

[[record]]
sequence_data = "HLHFQRMVGDFSNPTAQ [Peptide 21_22]"
result = "< 3.60"

[[record]]
sequence_data = "HLHFQTMVNSFSNPTAQ [Peptide R118T]"
result = 4.64


Please look at the following sequence next.
Challenge: # pIC50 lookup, item HLHFQTMVNDFSNPTAQ [Peptide 18_22]
Response given: 3.96

====

Biological target: DRB1*0401 (Homo sapiens, UniProt P01903+P01911, A100K/A169T/F76Y/I96L/K127E/L162R/M171V/N62H/P40V/Q125Y/R42H/S133A/S149N/S66Y/V115G/V209L/W38E)
Construct: purchased Benaroya Research Institute (Seattle, Wash.)
Assay: MHC II competition binding assay
Details: synthetic peptide competing with biotinylated control peptide; read-out: IC50 0401
pIC50: −log10 of the molar value. Where no end group is shown, it is not given here.
quantity kind: pIC50

[[record]]
sequence_data = "SAQWLGNYKKGYGYG [Design N12G]"
result = "< 3.60"

[[record]]
sequence_data = "SAQWLNHYKKGYGYG [Design N13H]"
result = "< 3.60"

[[record]]
sequence_data = "GVDFFMNIGTPVKAISSGKIV [Design C2WT]"
result = 4.86


Challenge: # pIC50 lookup, item SAQWLNNYKKGYGYG [Design C1WT]
Response given: < 3.60

Challenge: Okay, and GVHRQWYMHMSKYNVKVGD [Design L83M] ?
Response given: < 3.60

====

Biological target: DRB1*0101 (Homo sapiens, UniProt P01903+P01911, A100R/D57E/F55L/F60I/F76Y/I96L/L162R/M171V/P40L/Q125E/R42F/V115G/Y59C)
Construct: purchased Benaroya Research Institute (Seattle, Wash.)
Test: MHC II competition binding assay
Conditions: synthetic peptide competing with biotinylated control peptide; read-out: IC50 0101
pIC50: −log10 of the molar value. Where no end group is shown, it is not given here.
quantity kind: pIC50

[[record]]
sequence_data = "SAQWLGNYKKGYGYG [Design N12G]"
result = "> 8.00"


Challenge: # pIC50 lookup, item SAQWLNHYKKGYGYG [Design N13H]
Response given: < 3.60

====

Target: DRB1*1501 (Homo sapiens, UniProt P01903+P01911)
Construct: purchased Benaroya Research Institute (Seattle, Wash.)
Experiment: MHC II competition binding assay
Conditions: DRB1*1501; read-out: IC50
Where no end group is shown, it is not given here.
Each entry below carries its reported IC50.

Some sequences with recorded IC50:
[[record]]
sequence_data = "DHVKAGQQIGWSGSTGY [Peptide 93_99]"
result = "< 10 nM"

[[record]]
sequence_data = "DHVEAGQQIGWSGSTGY [Peptide 939599]"
result = "> 250000 nM"

[[record]]
sequence_data = "DYVEAGQQIGWSGSTGY [Peptide 95-99]"
result = "< 10 nM"

[[record]]
sequence_data = "HLHFQRMVNSFSNPTAQ [Design C5WT]"
result = "< 10 nM"


Please look at the following sequence next.
Challenge: Request body: readout IC50, system DRB1*1501 (Homo sapiens, UniProt P01903+P01911), query HLHFQRMVNSFGNPTAQ [Peptide S124G] . Return the value.
Response given: < 10 nM
